These entries and their values trace back to patent US20240317858A1.

molecular target: T1, Cynomolgus CD3εδ Fc heterodimer (Cy CD3ε Fc + CD3δ Fc-HIS) (cynomolgus, UniProt Q95LI5 22-117; Q95LI8 22-100); test: BLI (Octet), Fab monovalent, pH 6.0
T1 construct: range 22-117;range 22-100; Made in HEK 293 cells with a heterologous signal peptide; also called Cy CD3εδ-Fc; cyno CD3εδ Fc; not shown: Fc; Fc followed by HIS tag
T1 sequence (Q95LI5 22-117, stated change not applied, form in doubt, chain 1 of 2): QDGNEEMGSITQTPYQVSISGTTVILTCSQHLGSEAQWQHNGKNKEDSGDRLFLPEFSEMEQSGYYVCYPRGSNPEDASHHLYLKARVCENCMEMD
T1 sequence (Q95LI8 22-100, stated change not applied, form in doubt, chain 2 of 2): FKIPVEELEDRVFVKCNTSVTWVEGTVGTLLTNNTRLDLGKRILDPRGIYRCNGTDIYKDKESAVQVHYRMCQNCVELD
quantity: pKd
Give bare numbers, as −log10 of the molar value.

// solved cases for pKd follow
binder | quantity | recorded_number
Antibody No. V019 (ADI-76362) Fab (Fab, V domains shown, Fab by papain digestion of the IgG1) VH: QVQLVQSGAEVKKPGASVKVSCKASGFNIKDYYMHWVRQAPGQRLEWMGWIDLEEGDTIYDAKFQGRVTITRDTSASTAYMELSSLRSEDTAVYYCARDAYGRYFYDVWGQGTLVTVSS VL: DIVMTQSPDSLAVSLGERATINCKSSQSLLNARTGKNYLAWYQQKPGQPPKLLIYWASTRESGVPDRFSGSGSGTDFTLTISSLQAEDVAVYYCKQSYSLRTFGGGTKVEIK | pKd | 7.68
Antibody No. A002 (ADI-50024) Fab (Fab, V domains shown, Fab by papain digestion of the IgG1) VH: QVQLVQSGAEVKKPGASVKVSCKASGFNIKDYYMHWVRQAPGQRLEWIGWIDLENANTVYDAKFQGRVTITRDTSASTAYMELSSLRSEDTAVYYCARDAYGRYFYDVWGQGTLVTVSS VL: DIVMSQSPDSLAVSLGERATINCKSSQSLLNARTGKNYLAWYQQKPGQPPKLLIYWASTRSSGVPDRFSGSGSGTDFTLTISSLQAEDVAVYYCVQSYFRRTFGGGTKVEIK | pKd | 8.77

Quick one: pKd of Antibody No. V016 (ADI-76359) Fab (Fab, V domains shown, Fab by papain digestion of the IgG1) VH: QVQLVQSGAEVKKPGASVKVSCKASGFDIKDYYMHWVRQAPGQRLEWMGWIDLENANTIYDAKFQGRVTITRDTSASTAYMELSSLRSEDTAVYYCGRDAYGRYFYDVWGQGTLVTVSS VL: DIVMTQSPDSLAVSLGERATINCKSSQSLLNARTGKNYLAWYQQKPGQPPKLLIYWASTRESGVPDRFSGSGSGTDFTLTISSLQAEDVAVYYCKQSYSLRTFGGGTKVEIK ?
7.31
